Target: GPR139 (Homo sapiens)
Sequence (Q6DWJ6 1-353): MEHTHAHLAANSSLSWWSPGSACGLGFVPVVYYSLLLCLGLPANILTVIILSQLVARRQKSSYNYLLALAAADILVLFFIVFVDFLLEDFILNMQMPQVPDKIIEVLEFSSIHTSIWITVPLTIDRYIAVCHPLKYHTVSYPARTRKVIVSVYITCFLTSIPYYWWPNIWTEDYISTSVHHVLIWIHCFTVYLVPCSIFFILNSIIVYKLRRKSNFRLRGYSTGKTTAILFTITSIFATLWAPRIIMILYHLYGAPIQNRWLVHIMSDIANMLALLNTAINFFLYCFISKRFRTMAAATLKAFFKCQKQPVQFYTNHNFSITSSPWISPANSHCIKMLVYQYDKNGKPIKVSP
Assay: GPR139 Agonist titration / agonist counterscreen assay (calcium detection, HEK-GPR139 cells)
Type: cell-based
Set-up: expressed in transfected cells; host or cells: HEK Aequorin cells, Maxcyte transient transfection
Settings: GPR139 Agonist Activity
Method: GPR activity was assessed using a calcium detection assay. […] Negative control samples were treated with DMSO. […] Intracellular calcium was measured using Calcium 5.
Kindly return Y if reported Efficiency Ligand is no lower than 0.3; return N if it is lower.

Worked cases, answers included:
Molecule: O=C(CSCc1cccc2ccccc12)Nc1c[nH]c(=O)[nH]c1=O
Tested target: GPR139 (Homo sapiens)
Cat: Y
//
Molecule: COc1ccccc1NC(=O)C(=O)NNC(=O)COc1ccc(Br)cc1C
Tested target: GPR139 (Homo sapiens)
Cat: N
//
Molecule: COc1ccc2cc(C3(C)CC(=O)N(CC(=O)N(CC(C)C)CC(C)C)C3=O)ccc2c1 (stereo not drawn)
Tested target: GPR139 (Homo sapiens)
Cat: N

// query Textbook exercise: given the entry COc1ccc(Cl)cc1C(=O)NNC(=O)CCc1ccc([N+](=O)[O-])cc1 , state whether its Efficiency Ligand is greater than or equal to 0.3.
// result Y

// query Textbook exercise: given the entry Cc1ccc(CC2CCC(CC(=O)CC3CCCCCCC3)C2=O)cc1 (stereo not drawn) , state whether its Efficiency Ligand is greater than or equal to 0.3.
// result Y

====

target: GPR139 (Homo sapiens); assay: GPR139 Agonist titration / agonist counterscreen assay (calcium detection, HEK-GPR139 cells); type: cell-based; parameters: expressed in transfected cells; host or cells: HEK Aequorin cells, Maxcyte transient transfection; settings: GPR139 Agonist Activity; ligand efficiency
Kindly return 1 (yes) if reported Efficiency Ligand is no lower than 0.4; return 0 (no) if it is lower.

Molecule: Cc1cccc(COc2coc(COc3nccn3C)cc2=O)c1
Cat: 1 (yes)

// query Textbook exercise: given the entry CC1(c2ccc3ccccc3c2)NC(=O)N(CC(=O)Nc2ccccc2Cl)C1=O (stereo not drawn) , state whether its Efficiency Ligand is greater than or equal to 0.4.
// result 0 (no)

// query Textbook exercise: given the entry Cc1cc(CC(=O)N/C=C/c2cccc3ccccc23)n[nH]1 , state whether its Efficiency Ligand is greater than or equal to 0.4.
// result 1 (yes)

// query Textbook exercise: given the entry CCOc1nn(CC)cc1-c1nnc(SCc2ccc(C(=O)OC)cc2)n1C , state whether its Efficiency Ligand is greater than or equal to 0.4.
// result 0 (no)

// query Textbook exercise: given the entry Cc1ccc(CCNC(=O)Cn2cc3c(n2)CCCC3)cc1 , state whether its Efficiency Ligand is greater than or equal to 0.4.
// result 1 (yes)

// query Textbook exercise: given the entry COc1cccc(C(=O)NNC(=O)CCCOc2ccc(Cl)cc2Cl)c1 , state whether its Efficiency Ligand is greater than or equal to 0.4.
// result 1 (yes)

// query Textbook exercise: given the entry C=C1C(CC(=C)C2Cc3ccc4ccccc4c3C2)=CC(c2ccccc2)=CC1C (stereo not drawn) , state whether its Efficiency Ligand is greater than or equal to 0.4.
// result 0 (no)

// query Textbook exercise: given the entry N#C/C(=C/c1ccc(CNS(=O)(=O)c2ccccc2)o1)C(=O)NCCc1ccccc1 , state whether its Efficiency Ligand is greater than or equal to 0.4.
// result 0 (no)

// query Textbook exercise: given the entry CN(Cc1cccs1)C(=O)CN1C(=O)NC(C)(c2ccc3c(c2)OCO3)C1=O (stereo not drawn) , state whether its Efficiency Ligand is greater than or equal to 0.4.
// result 1 (yes)

// query Textbook exercise: given the entry CCC1(c2ccc(Cl)cc2)NC(=O)N(CC(=O)N2CC3(C)CC2CC(C)(C)C3)C1=O (stereo not drawn) , state whether its Efficiency Ligand is greater than or equal to 0.4.
// result 0 (no)

// query Textbook exercise: given the entry O=C(CCc1nc2cccnc2n1Cc1cccs1)NCc1ccc2c(c1)OCO2 , state whether its Efficiency Ligand is greater than or equal to 0.4.
// result 0 (no)

// query Textbook exercise: given the entry CCOC(=O)c1ccc(CSc2nnc(N)s2)cc1 , state whether its Efficiency Ligand is greater than or equal to 0.4.
// result 1 (yes)
